tested on: drosophila; assay: Tests in vivo on drosophila: two-tube repellency test, Repulsive Index; conditions: 10% solution of product; share of drosophila in product tube versus EtOH tube
observed_property: In vivo tests: Tube product

molecule=CCCCN(CCCC)C(=O)c1ccc2ccc(=O)oc2c1 result=17.46%
molecule="CCCC(C)Oc1ccc2oc(=O)ccc2c1 (stereo not drawn)" result=6.97%
molecule="CCC(C)COc1ccc2ccc(=O)oc2c1 (stereo not drawn)" result=10.37%
molecule="CCCC(C)Oc1cc(=O)oc2ccccc12 (stereo not drawn)" result=20.71%
molecule=CCCCCOc1ccc2ccc(=O)oc2c1 result=12.47%
molecule="CCCC(C)Oc1ccc2ccc(=O)oc2c1 (stereo not drawn)" result=16.08%
molecule=CCCCCCCCOc1ccc2ccc(=O)oc2c1 result=10.00%
molecule=CCC(CC)Oc1ccc2ccc(=O)oc2c1 result=12.00%
molecule=CCCCCCOc1ccc2ccc(=O)oc2c1 result=8.91%
molecule=CC(C)CCOc1cc(=O)oc2ccccc12 result=9.90%
molecule="CCC(C)Oc1ccc2ccc(=O)oc2c1 (stereo not drawn) [EV04058]" result=8.78%
molecule=CC[C@H](C)OC(=O)c1ccc2ccc(=O)oc2c1 result=45.23%

----------
tested on: drosophila; test: Tests in vivo on drosophila: two-tube repellency test, Repulsive Index; details: 10% solution of product; share of drosophila in EtOH tube
// In vivo tests: Tube EtOH lookup, one value per entry
observed_property: In vivo tests: Tube EtOH

molecule=CC(C)CCOc1cc(=O)oc2ccccc12 observed_property="In vivo tests: Tube EtOH" result=90.10%
molecule=CCC(CC)Oc1ccc2ccc(=O)oc2c1 observed_property="In vivo tests: Tube EtOH" result=88.00%
molecule="CCC(C)Oc1ccc2ccc(=O)oc2c1 (stereo not shown) [EV04070]" observed_property="In vivo tests: Tube EtOH" result=92.79%
molecule=CC[C@H](C)OC(=O)c1ccc2ccc(=O)oc2c1 observed_property="In vivo tests: Tube EtOH" result=54.77%
molecule=CCCCCOc1ccc2ccc(=O)oc2c1 observed_property="In vivo tests: Tube EtOH" result=87.53%
molecule=CC(C)CCOc1ccc2ccc(=O)oc2c1 observed_property="In vivo tests: Tube EtOH" result=86.10%
molecule="CCCC(C)Oc1cc(=O)oc2ccccc12 (stereo not shown)" observed_property="In vivo tests: Tube EtOH" result=79.29%
molecule="CCC(C)Oc1cc(=O)oc2ccccc12 (stereo not shown)" observed_property="In vivo tests: Tube EtOH" result=90.50%
molecule="CCC(C)Oc1ccc2ccc(=O)oc2c1 (stereo not shown) [EV04058]" observed_property="In vivo tests: Tube EtOH" result=91.22%
molecule="CCCC(C)Oc1ccc2oc(=O)ccc2c1 (stereo not shown)" observed_property="In vivo tests: Tube EtOH" result=93.03%

----------
system: drosophila; assay: Tests in vivo on drosophila: two-tube repellency test, Repulsive Index; conditions: 10% solution of product; share of drosophila in EtOH tube
Exam item: assign True to entries whose In vivo tests: Tube EtOH is below 90% and False to entries at or above 90%. Note that a value of exactly 90% receives False.

compound=CCCCCCCCN(CCCCCCCC)C(=O)c1ccc2ccc(=O)oc2c1 category=True
compound="CCCC(C)Oc1ccc2ccc(=O)oc2c1 (centres unmarked)" category=True
compound="CC(C)C(C)Oc1ccc2ccc(=O)oc2c1 (centres unmarked)" category=True
compound=CCC(CC)Oc1cc(=O)oc2ccccc12 category=False
compound=CCCCN(CCCC)C(=O)c1ccc2ccc(=O)oc2c1 category=True
compound="CCCCCCC(C)Oc1ccc2ccc(=O)oc2c1 (centres unmarked)" category=False

----------
// RI against drosophila (FIG. 1) lookup, one value per entry
system: drosophila; assay: Tests in vivo on drosophila: two-tube repellency test, Repulsive Index; parameters: key: RI = (N1−N2)/(N1+N2); N1 solvent tube, N2 compound tube; conditions: concentration not given
observed_property: RI against drosophila (FIG. 1)

compound="CCN(CC)C(=O)c1cccc(C)c1 [DEET, N,N-Diethyl-meta-toluamide]" result="> 0.9"
compound="CCC(C)NC(=O)c1ccc2ccc(=O)oc2c1 (stereo not shown)" result=~0.2
compound="CCC(C)NC(=O)COc1ccc2ccc(=O)oc2c1 (stereo not shown)" result=~−0.2
compound="CCC(C)OC(=O)N1CCCCC1CCO (stereo not shown)" result="> 0.6"

----------
test system: drosophila; assay: Tests in vivo on drosophila: two-tube repellency test, Repulsive Index; settings: 20% solution of product; share of drosophila in product tube versus EtOH tube
# label = T if In vivo tests: Tube product >= 6% else F

compound="CCC(C)Oc1ccc2ccc(=O)oc2c1 (stereo not shown) [EV04058]" assay_system=drosophila category=T
compound="CC(C)C(C)Oc1ccc2ccc(=O)oc2c1 (stereo not shown) [EV06028]" assay_system=drosophila category=F
compound="CCC(C)Oc1cc(=O)oc2ccccc12 (stereo not shown) [EV06088]" assay_system=drosophila category=T
compound="CCC(CC)Oc1cc(=O)oc2ccccc12 [EV06062]" assay_system=drosophila category=F
compound="CCCCCCC(C)Oc1ccc2ccc(=O)oc2c1 (stereo not shown) [EV06148]" assay_system=drosophila category=F
compound="CCC(C)Oc1ccc2ccc(=O)oc2c1 (stereo not shown) [EV04070]" assay_system=drosophila category=T
compound="CC(C)CCOc1ccc2ccc(=O)oc2c1 [EV06036]" assay_system=drosophila category=T
compound="CCCCN(CCCC)C(=O)c1ccc2ccc(=O)oc2c1 [EV05138]" assay_system=drosophila category=T
compound="CC(C)CCOc1cc(=O)oc2ccccc12 [EV06140]" assay_system=drosophila category=T
compound="CCCCCCCCN(CCCCCCCC)C(=O)c1ccc2ccc(=O)oc2c1 [EV06096]" assay_system=drosophila category=F
compound="CC[C@H](C)OC(=O)c1ccc2ccc(=O)oc2c1 [EV05178]" assay_system=drosophila category=T
compound="CC(C)C(C)Oc1cc(=O)oc2ccccc12 (stereo not shown) [EV06128]" assay_system=drosophila category=T
compound="CCCC(C)Oc1ccc2ccc(=O)oc2c1 (stereo not shown) [EV06044]" assay_system=drosophila category=F
compound="CCCCN(CCCC)C(=O)COc1ccc2ccc(=O)oc2c1 [EV05120]" assay_system=drosophila category=T
compound="CCCCCCCCOc1ccc2ccc(=O)oc2c1 [EV06144]" assay_system=drosophila category=T
compound="CCCC(C)Oc1ccc2oc(=O)ccc2c1 (stereo not shown) [EV06154]" assay_system=drosophila category=F
compound="CCC(C)COc1ccc2ccc(=O)oc2c1 (stereo not shown) [EV04094]" assay_system=drosophila category=T
compound="CCCCCCOc1ccc2ccc(=O)oc2c1 [EV06110]" assay_system=drosophila category=T
compound="CCC(CC)Oc1ccc2ccc(=O)oc2c1 [EV04114]" assay_system=drosophila category=T
compound="CCCC(C)Oc1cc(=O)oc2ccccc12 (stereo not shown) [EV06098]" assay_system=drosophila category=F

----------
system: drosophila; experiment: Tests in vivo on drosophila: two-tube repellency test, Repulsive Index; settings: 10% solution of product; share of drosophila in EtOH tube
// In vivo tests: Tube EtOH lookup, one value per entry
observed_property: In vivo tests: Tube EtOH

molecule=CCCCCCOc1ccc2ccc(=O)oc2c1 result=91.09%
molecule="CCC(C)COc1ccc2ccc(=O)oc2c1 (centres unmarked)" result=89.63%
molecule=CCCCN(CCCC)C(=O)COc1ccc2ccc(=O)oc2c1 result=90.36%
molecule="CCC(C)Oc1ccc2oc(=O)ccc2c1 (centres unmarked)" result=90.91%
molecule=CCCCCCCCOc1ccc2ccc(=O)oc2c1 result=90.00%
